TARGET_SYSTEM: HLA-DRB1*04:01 molecules (human (endogenous in homozygous EBV cells))
ASSAY_INFO: ELISA
Collected other values appear next to each entry.
READOUT_KIND: other

| BINDER | QUANTITATIVE_RESULT |
| --- | --- |
| KCIEWEKAQAGA [Art v 1_(25-36) Ala-34] | 17 |
| KCIEWEKGQHGA [Art v 1_(25-36) Gly-32] | 149 |
| KCIEWEAAQHGA [Art v 1_(25-36) Ala-31] | 17 |
| KCIEWAKAQHGA [Art v 1_(25-36) Ala-30] | 28 |
| KCIAWEKAQHGA [Art v 1_(25-36) Ala-28] | 11 |
| KCIEWEKAQHAA [Art v 1_(25-36) Ala-35] | 5 |
